system: DeltatarO mutant; test: S. aureus survival, RN4220 and DeltatarO strains – OD600, teichoic acid synthesis inhibitors, primary screen (AID 463173); settings: S. aureus RN4220 wild type/DeltatarO growth, OD600, 18 h, stronger effect = lower value, screened at 18.75 µg/mL (by protocol)
Out of some 52,000 compounds screened, about 4,300 (8.3%) were called active. For the sample, actives were picked, then their nearest neighbours and some compounds at random.
survival: recorded values
Just the number please, in %, no unit attached.

Below are worked cases with known answers.
CCN(CC)S(=O)(=O)c1ccc(-n2cnnn2)c(C)c1 :: 111
COc1cccc(NC(=O)Cn2cnc3c(nc4n3CCCCC4)c2=O)c1 :: 76
COc1ccc(-n2cc(-c3ccc4c(c3)OCO4)n(CC(=O)Nc3cc(Cl)ccc3C)c2=O)cc1 :: 73
Cc1ccc(-c2nn(CC(=O)NCc3ccccc3)c3c2cnc2ccc(F)cc23)cc1C :: 75

Continue with the next molecule.
Form field survival for item CCc1ccc(NC(=O)CC2C(=O)OCCN2CC)cc1 (stereo not given) on DeltatarO mutant: 5

----------
tested on: DeltatarO mutant; experiment: S. aureus survival, RN4220 and DeltatarO strains – OD600, teichoic acid synthesis inhibitors, primary screen (AID 463173); conditions: S. aureus RN4220 wild type/DeltatarO growth, OD600, 18 h, stronger effect = lower value, screened at 18.75 µg/mL (by protocol)
About 4,300 (8.3%) of roughly 52,000 compounds were called active. For the sample, actives were picked, then their nearest neighbours and some compounds at random.
MEASURED_METRIC: survival (%)
Hi! Could you send only the number? It should be in %, unit omitted.

Examples with their reported survival follow.
Cn1cc(C(=O)O)c(=O)c2ccccc21 :: 80
Cc1cc(C)cc(NC(=O)C2CCCN(S(=O)(=O)c3cccc4nsnc34)C2)c1 (stereo unspecified) :: 105
COc1ccc(C(=O)Oc2c(Sc3ccc(Cl)cc3)c(C)nn2C(C)(C)C)cc1OC :: 56
O=C(Nc1ccc(F)cc1)c1nc(SCc2ccccc2F)ncc1Cl :: 99
Cc1ccccc1NCc1nc2ccccc2n1CCOc1ccccc1 :: 0

survival measured on Cn1c(=N)n(CC(=O)c2ccc(-c3ccccc3)cc2)c2ccccc21 = 106

The measured survival associated with COc1cc(Cl)ccc1OC(=O)c1cn(-c2ccccc2OC)c(=O)c2ccccc12 reads 58

GET /value?item= Cc1cc(C)cc(NS(=O)(=O)c2cc3[nH]c(=O)c(=O)[nH]c3cc2C)c1 &field=survival returns 87

// Cc1nn(C(C)(C)C)c(OC(=O)c2c(F)cccc2F)c1Sc1ccccc1 : survival value = 127

CCc1ccc(S(=O)(=O)c2cn(C)c3cc(N4CCOCC4)c(F)cc3c2=O)cc1 has a reported survival of 90

The recorded survival for entry Cc1nn(C(C)(C)C)c(OC(=O)c2cccc(F)c2)c1Sc1ccccc1 equals 24

----------
Listed below: survival values for each entry.
tested on: DeltatarO mutant; experiment: S. aureus survival, RN4220 and DeltatarO strains – OD600, teichoic acid synthesis inhibitors, primary screen (AID 463173); details: S. aureus RN4220 wild type/DeltatarO growth, OD600, 18 h, stronger effect = lower value, screened at 18.75 µg/mL (by protocol)
Out of some 52,000 compounds screened, about 4,300 (8.3%) were called active. Many of the other results were omitted from the sample, so actives are more common in it than they were.
Unit % implied. Number only.

Here are 3 compounds together with their reported answers.
COc1ccc(NC(=O)Cn2c(=O)nc(-c3ccccc3)c3ccccc32)cc1OC :: 78
COc1cccc(CNC(=O)c2c(O)nc3ccccn3c2=O)c1 :: 43
O=C(Nc1cnn(C23CC4CC(CC(C4)C2)C3)c1)c1cc(-c2ccccc2)on1 :: 101

The measured survival that Nc1nc(SC#CC(F)(F)F)ns1 showed for DeltatarO mutant is 13

Item: COc1ccc(-c2noc(CSc3nnc(C)n3-c3ccc(C)cc3)n2)cc1OC | System: DeltatarO mutant | survival: 59

GET /values?item= COc1cccc(CCNC(=O)c2c(O)nc3cc(C)ccn3c2=O)c1 &system= DeltatarO mutant returns survival: 82

Summary: O/N=C1\CCCc2nnc3c(c21)CCCC3 , DeltatarO mutant, survival = 101

Recorded survival for C=CCSc1nsc(N)n1 on DeltatarO mutant was 75

Item: Cc1ccc(C)c(N2CCN(C(=O)c3cccc(-n4c(C)nc5cccnc54)c3)CC2)c1 | System: DeltatarO mutant | survival: 78

O=C(NCc1ccc(F)cc1)c1c(O)nc2ccccn2c1=O on DeltatarO mutant gives survival = 44

The observed survival for O=S(=O)(Nc1cccc(C(F)(F)F)c1)c1ccc(-c2cnc(C3CC3)o2)cc1 when tested with DeltatarO mutant stands at 91

The measurements presented in this section are drawn from PubChem BioAssay AID463173.
